These measurements were taken from patent US8822517B2.

testedSystem: dopaminergic D3 receptor (Homo sapiens, UniProt P35462)
Sequence (P35462 whole entry): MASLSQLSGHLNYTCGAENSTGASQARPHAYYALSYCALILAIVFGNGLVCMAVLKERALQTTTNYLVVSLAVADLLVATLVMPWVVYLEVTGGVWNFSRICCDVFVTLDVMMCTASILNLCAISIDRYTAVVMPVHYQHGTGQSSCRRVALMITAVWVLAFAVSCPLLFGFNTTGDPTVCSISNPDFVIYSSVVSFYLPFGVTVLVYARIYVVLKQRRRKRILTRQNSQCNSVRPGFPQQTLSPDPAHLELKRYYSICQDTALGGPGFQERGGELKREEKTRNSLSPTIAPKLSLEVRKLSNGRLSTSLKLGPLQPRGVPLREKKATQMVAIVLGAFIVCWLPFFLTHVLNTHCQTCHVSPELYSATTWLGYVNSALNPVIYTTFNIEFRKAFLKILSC
assayInfo: Cellular functional assay, dopaminergic D3 receptor (agonism/antagonism)
Type: cell-based
assayConditions: agonist effect, percent of control specific agonist response (300 nM dopamine for control); 1×10^−6 M; D3 (h), CHO cells; read-out: D3-ag [%]
For each of the compounds below, state its activation at 1 µM.

Record excerpt, results attached:
{"compound": "O=S(=O)(NCCCCN1CCN(c2cccc3[nH]ccc23)CC1)c1cnc2ccccn12 [Compound 30]", "testedSystem": "dopaminergic D3 receptor (Homo sapiens, UniProt P35462)", "activation at 1 µM": "52%"}
{"compound": "O=S(=O)(NCCCCN1CCN(c2cccc3[nH]ccc23)CC1)c1cc2ccc(Cl)cc2s1 [Compound 363]", "testedSystem": "dopaminergic D3 receptor (Homo sapiens, UniProt P35462)", "activation at 1 µM": "65%"}
{"compound": "O=S(=O)(NCCCCN1CCN(c2nsc3ccccc23)CC1)c1cc2ccccc2s1 [Compound 239]", "testedSystem": "dopaminergic D3 receptor (Homo sapiens, UniProt P35462)", "activation at 1 µM": "6%"}
{"compound": "Cc1c(S(=O)(=O)NCCCCN2CCC(c3noc4cc(F)ccc34)CC2)sc2ccc(F)cc12 [Compound 101]", "testedSystem": "dopaminergic D3 receptor (Homo sapiens, UniProt P35462)", "activation at 1 µM": "-18%"}
{"compound": "O=S(=O)(NCCCCN1CCN(c2cccc3[nH]ccc23)CC1)c1cc2ccccc2s1 [Compound 33]", "testedSystem": "dopaminergic D3 receptor (Homo sapiens, UniProt P35462)", "activation at 1 µM": "60%"}
{"compound": "O=S(=O)(NCCCCN1CCN(c2cccc3[nH]ccc23)CC1)c1ccc2cc(Cl)ccc2c1 [Compound 358]", "testedSystem": "dopaminergic D3 receptor (Homo sapiens, UniProt P35462)", "activation at 1 µM": "47%"}

Please state, for each entry, its recorded activation at 1 µM.
1. O=S(=O)(NCCCCN1CCN(c2nsc3ccccc23)CC1)c1csc2ccccc12 [Compound 240]
2. O=S(=O)(NCCCCN1CCC(c2noc3cc(F)ccc23)CC1)c1cc2ccccc2s1 [Compound 312]

Found:
1: 8%; 2: 10%

* * *

Test system: mice
assayInfo: d-Amphetamine-induced locomotor hyperactivity in mice
assayConditions: minimum effective dose, d-amphetamine-induced locomotor hyperactivity, i.p.
Provide the recorded MED* for the entries that follow.
Answers are plain numbers, in mg/kg.

Below are worked cases with known answers.
{"compoundString": "O=S(=O)(NCCCCN1CCN(c2nsc3ccccc23)CC1)c1ccc2ccccc2c1", "testedSystem": "mice", "displayUnit": "mg/kg", "MED*": 5}
{"compoundString": "Cc1cccc(S(=O)(=O)NCCCN2CCN(c3nsc4ccccc34)CC2)c1", "testedSystem": "mice", "displayUnit": "mg/kg", "MED*": 2}
{"compoundString": "O=S(=O)(NCCCCN1CCC(c2noc3cc(F)ccc23)CC1)c1ccc2cc(Cl)ccc2c1", "testedSystem": "mice", "displayUnit": "mg/kg", "MED*": 2.5}
{"compoundString": "O=S(=O)(NCCCCN1CCC(c2noc3cc(F)ccc23)CC1)c1ccc2ccccc2c1", "testedSystem": "mice", "displayUnit": "mg/kg", "MED*": 2.5}

Record Cc1cccc(S(=O)(=O)NCCCN2CCC(c3noc4cc(F)ccc34)CC2)c1 , field MED*: 2.5

* * *

testedSystem: UniProt P18825
Sequence (P18825 whole entry): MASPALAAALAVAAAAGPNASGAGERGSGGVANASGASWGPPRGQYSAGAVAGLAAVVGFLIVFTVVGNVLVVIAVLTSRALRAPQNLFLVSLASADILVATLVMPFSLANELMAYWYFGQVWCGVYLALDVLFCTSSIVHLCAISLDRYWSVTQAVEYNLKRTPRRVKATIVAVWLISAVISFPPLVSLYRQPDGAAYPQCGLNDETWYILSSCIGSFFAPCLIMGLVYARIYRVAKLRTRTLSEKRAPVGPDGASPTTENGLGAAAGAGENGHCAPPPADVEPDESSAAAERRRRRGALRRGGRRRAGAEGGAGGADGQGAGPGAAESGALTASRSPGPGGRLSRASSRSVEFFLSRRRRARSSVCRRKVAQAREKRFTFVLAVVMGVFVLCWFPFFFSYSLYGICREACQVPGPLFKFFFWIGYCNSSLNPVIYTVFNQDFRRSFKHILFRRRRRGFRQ
assayInfo: Cellular functional assay, adrenergic α2C receptor (agonism/antagonism)
Type: cell-based
assayConditions: agonist effect, percent of control specific agonist response; compounds tested at 1×10^−6M; read-out: α2C −ag [%]
quantityName: activation at 1 µM (%)
Answers are plain numbers, in %.

Take a look at these entries with their results.
{"compound": "O=S(=O)(NCCCCN1CCN(c2cccc3[nH]ccc23)CC1)c1ccc2cc(Cl)ccc2c1 [Compound 358]", "activation at 1 µM [%]": 28}
{"compound": "O=S(=O)(NCCCN1CCC(c2noc3cc(F)ccc23)CC1)c1ccc(F)c(Cl)c1 [Compound 331]", "activation at 1 µM [%]": -14}
{"compound": "Cc1cccc(S(=O)(=O)NCCCN2CCN(c3nsc4ccccc34)CC2)c1 [Compound 7]", "activation at 1 µM [%]": -6}
{"compound": "Cc1c(S(=O)(=O)NCCCCN2CCN(c3nsc4ccccc34)CC2)sc2ccc(F)cc12 [Compound 65]", "activation at 1 µM [%]": 8}
{"compound": "O=S(=O)(NCCCN1CCC(c2noc3cc(F)ccc23)CC1)c1ccc2cn[nH]c2c1 [Compound 352]", "activation at 1 µM [%]": -16}
{"compound": "Cc1c(S(=O)(=O)NCCCCN2CCC(c3noc4cc(F)ccc34)CC2)sc2ccc(F)cc12 [Compound 101]", "activation at 1 µM [%]": 1}
{"compound": "O=c1[nH]c2ccc(S(=O)(=O)NCCCN3CCN(c4nsc5ccccc45)CC3)cc2o1 [Compound 8]", "activation at 1 µM [%]": -16}
{"compound": "O=S(=O)(NCCCCN1CCN(c2nsc3ccccc23)CC1)c1cc2ccc(Cl)cc2s1 [Compound 241]", "activation at 1 µM [%]": -1}

Hey, can you go through the list below and give me activation at 1 µM for every item?
1. O=S(=O)(NCCCCN1CCN(c2nsc3ccccc23)CC1)c1cc2ccccc2s1 [Compound 239]
2. O=S(=O)(NCCCCN1CCN(c2cccc3[nH]ccc23)CC1)c1ccc(F)cc1 [Compound 359]
3. O=S(=O)(NCCCCN1CCN(c2cccc3[nH]ccc23)CC1)c1cccc(F)c1 [Compound 28]
4. O=S(=O)(NCCCCN1CCC(c2noc3cc(F)ccc23)CC1)c1cc2ccc(Cl)cc2s1 [Compound 314]
5. O=S(=O)(NCCCCN1CCN(c2cccc3[nH]ccc23)CC1)c1cc2ccccc2s1 [Compound 33]

Found:
3
13
4
-2
-1

Working through the 3 compounds below one at a time, give activation at 1 µM for each.
1. O=S(=O)(NCCCCN1CCN(c2cccc3[nH]ccc23)CC1)c1ccccc1 [Compound 27]
2. O=S(=O)(NCCCCN1CCC(c2noc3cc(F)ccc23)CC1)c1ccc2cc(Cl)ccc2c1 [Compound 97]
3. O=S(=O)(NCCCCN1CCN(c2cccc3[nH]ccc23)CC1)c1cnc2ccccn12 [Compound 30]

Found:
[3, -4, 18]

Assay UniProt P18825, sample O=S(=O)(NCCCCN1CCC(c2noc3cc(F)ccc23)CC1)c1cc2ccccc2s1 [Compound 312] , activation at 1 µM read: 61

* * *

Could you please report measured inhibition at 1 µM for the items listed next?
testedSystem: serotoninergic 5-HT7 receptor (Homo sapiens)
Sequence (P34969 whole entry): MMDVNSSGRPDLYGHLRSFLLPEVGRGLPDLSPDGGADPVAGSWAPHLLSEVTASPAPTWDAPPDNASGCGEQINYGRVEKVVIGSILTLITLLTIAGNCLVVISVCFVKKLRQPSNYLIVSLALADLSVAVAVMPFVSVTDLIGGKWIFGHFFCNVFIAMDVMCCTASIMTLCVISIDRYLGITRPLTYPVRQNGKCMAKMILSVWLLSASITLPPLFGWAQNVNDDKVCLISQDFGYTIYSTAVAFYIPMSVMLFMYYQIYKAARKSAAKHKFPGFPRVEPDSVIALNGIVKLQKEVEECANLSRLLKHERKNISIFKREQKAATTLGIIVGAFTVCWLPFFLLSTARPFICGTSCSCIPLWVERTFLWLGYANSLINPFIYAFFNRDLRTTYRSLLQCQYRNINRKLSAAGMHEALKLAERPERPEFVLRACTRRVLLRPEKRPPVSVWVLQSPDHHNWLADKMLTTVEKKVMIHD
assayInfo: Binding assay 5-HT7 (h), [3H]LSD, CHO cells
Set-up: expressed in transfected cells; host or cells: CHO cells
assayConditions: read-out: 5-HT7
Give bare numbers, in %.

Previously resolved entries follow.
{"compound": "O=S(=O)(NCCCN1CCN(c2nsc3ccccc23)CC1)c1cccc2scnc12 [Compound 267]", "displayUnit": "%", "inhibition at 1 µM": 100}
{"compound": "O=S(=O)(NCCCN1CCN(c2nsc3ccccc23)CC1)c1ccc2cn[nH]c2c1 [Compound 268]", "displayUnit": "%", "inhibition at 1 µM": 99}
{"compound": "O=S(=O)(NCCCCN1CCN(c2nsc3ccccc23)CC1)c1cccc(Cl)c1 [Compound 69]", "displayUnit": "%", "inhibition at 1 µM": 96}
{"compound": "O=S(=O)(NCCCCN1CCC(c2noc3cc(F)ccc23)CC1)c1c[nH]c2ncccc12 [Compound 323]", "displayUnit": "%", "inhibition at 1 µM": 93}
{"compound": "Cc1[nH]c2ccc(Cl)cc2c1C1=CCN(CCCNS(=O)(=O)c2ccc(F)cc2)CC1 [Compound 443]", "displayUnit": "%", "inhibition at 1 µM": 54}

Hi team, please reply with inhibition at 1 µM for each item in this list.
1. Cc1[nH]c2ccc(Cl)cc2c1C1=CCN(CCCNS(=O)(=O)c2cccc(O)c2)CC1 [Compound 445]
2. O=S(=O)(NCCCCN1CCN(c2cccc3c2OCCO3)CC1)c1ccc(F)c(F)c1 [Compound 389]
3. N#Cc1ccc(S(=O)(=O)NCCCN2CCC(c3noc4cc(F)ccc34)CC2)cc1 [Compound 337]

Found:
[98, 93, 87]

* * *

testedSystem: serotoninergic 5-HT1A receptor (Homo sapiens, UniProt P08908)
Sequence (P08908 1-422): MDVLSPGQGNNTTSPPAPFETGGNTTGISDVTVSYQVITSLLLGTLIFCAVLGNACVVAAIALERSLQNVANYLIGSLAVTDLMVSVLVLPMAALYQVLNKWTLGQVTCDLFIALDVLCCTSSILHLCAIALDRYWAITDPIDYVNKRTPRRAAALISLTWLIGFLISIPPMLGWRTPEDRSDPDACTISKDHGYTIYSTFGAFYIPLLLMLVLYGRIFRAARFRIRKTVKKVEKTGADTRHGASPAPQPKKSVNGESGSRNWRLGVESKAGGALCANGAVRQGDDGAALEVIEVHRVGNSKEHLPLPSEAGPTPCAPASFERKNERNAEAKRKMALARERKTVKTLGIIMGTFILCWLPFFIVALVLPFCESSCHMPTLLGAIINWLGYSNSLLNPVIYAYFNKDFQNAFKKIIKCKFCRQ
assayInfo: Binding assay 5-HT1A (h), [3H]8-OH-DPAT, HEK-293 cells
Parameters: expressed in transfected cells; host or cells: HEK-293 cells
assayConditions: read-out: 5-HT1A
Entry flag: True if inhibition at 1 µM reaches 90%; False if it does not.

Some entries whose results are on file:
{"compoundString": "O=S(=O)(NCCCCN1CCC(c2noc3cc(F)ccc23)CC1)c1ccc2c(c1)CCO2", "cat": "False"}
{"compoundString": "O=S(=O)(NCCCN1CCC(c2noc3cc(F)ccc23)CC1)c1cccs1", "cat": "False"}
{"compoundString": "O=S(=O)(NCCCCN1CCN(c2nsc3ccccc23)CC1)c1cccc2ccccc12", "cat": "True"}
{"compoundString": "O=S(=O)(NCCCCN1CCC(c2noc3cc(F)ccc23)CC1)c1ccc2c(c1)OCO2", "cat": "False"}
{"compoundString": "O=S(=O)(NCCCCN1CCN(c2nsc3ccccc23)CC1)c1cccc(C(F)(F)F)c1", "cat": "False"}

Now examine the next entry.
Lookup: Is inhibition at 1 µM at least 90%? Consider O=S(=O)(NCCCCN1CCN(c2cccc3[nH]ccc23)CC1)c1c[nH]c2ncccc12
Found: False
